test.description: in vivo
test.parameters: male, Sprague-Dawley, rat, iv, 3 mg/kg
quantity.name: half-life (h)
Record the value in h, omitting the unit from your answer.

The molecule C=C[C@]1(C)C[C@@H](OC(=O)COc2ccc3c(c2F)B(O)OC3)[C@]2(C)[C@H](C)CC[C@]3(CCC(=O)[C@H]32)[C@@H](C)[C@@H]1O showed half-life equal to 1.75

----------
test.description: in vitro
Assay type: in vitro ADME
test.parameters: human, plasma, pH 7.4
quantity.name: fraction unbound at 4 h, 2 µM
Response field accepts a number only; no unit should be typed.

fraction unbound at 4 h, 2 µM for C=C[C@]1(C)C[C@@H](OC(=O)COc2ccc3c(c2F)B(O)OC3)[C@]2(C)[C@H](C)CC[C@]3(CCC(=O)[C@H]32)[C@@H](C)[C@@H]1O is 0.024

----------
test.description: in vivo
test.parameters: male, Sprague-Dawley, rat, iv, 3 mg/kg, MRT
quantity.name: MRT
Field note: include the unit after the figure.

Documented MRT of C=C[C@]1(C)C[C@@H](OC(=O)COc2ccc3c(c2F)B(O)OC3)[C@]2(C)[C@H](C)CC[C@]3(CCC(=O)[C@H]32)[C@@H](C)[C@@H]1O [AN11251] : 1.22 h

----------
test.description: in vitro
test.parameters: African green monkey
quantity.name: CC50 (µg/mL)
Write the value in µg/mL as a bare number.

What the record says about C=C[C@]1(C)C[C@@H](OC(=O)COc2ccc3c(c2F)B(O)OC3)[C@]2(C)[C@H](C)CC[C@]3(CCC(=O)[C@H]32)[C@@H](C)[C@@H]1O : CC50 is 27

----------
test.parameters: human
quantity.name: half-life (h)
Could you give me the number in h? Just the number is fine.

Memo: C=C[C@]1(C)C[C@@H](OC(=O)COc2ccc3c(c2F)B(O)OC3)[C@]2(C)[C@H](C)CC[C@]3(CCC(=O)[C@H]32)[C@@H](C)[C@@H]1O [AN11251] , reported half-life: 4.2

----------
test.description: in vitro
Format: in vitro ADME
test.parameters: rat, microsomes
quantity.name: CLint scaled (mL/min/kg)
Respond numerically; units are mL/min/kg and should not be typed.

Looking up C=C[C@]1(C)C[C@@H](OC(=O)COc2ccc3c(c2F)B(O)OC3)[C@]2(C)[C@H](C)CC[C@]3(CCC(=O)[C@H]32)[C@@H](C)[C@@H]1O [AN11251] , I found its CLint scaled recorded as 333

----------
test.description: in vitro
Type: in vitro ADME
test.parameters: human, microsomes
quantity.name: CLint scaled (mL/min/kg)
Respond numerically; units are mL/min/kg and should not be typed.

Entry under test: C=C[C@]1(C)C[C@@H](OC(=O)COc2ccc3c(c2F)B(O)OC3)[C@]2(C)[C@H](C)CC[C@]3(CCC(=O)[C@H]32)[C@@H](C)[C@@H]1O [AN11251] . Its CLint scaled was 300
